# Measured on: dAsCas12a Ultra (Acidaminococcus sp., UniProt U2UMQ6 1-1307, M537R;F870L;D908A;E993A;D1235A)
# Assay method text: Spec-seq (native PAGE EMSA with sequencing of bound and unbound); 25 mM Tris-HCl pH 7.4, 150 mM KCl, 5 mM MgCl2, 10% glycerol, 1 mM DTT, 40 ng/uL salmon sperm DNA; 400 nM Cas12a, 480 nM crRNA, 50 nM library, 37 C 1 h; native PAGE at room temperature; high values mean tight binding
# Run conditions: protein: recombinant
# binding signal per entry
Just the number in lnKA, nothing appended.

Here's what some known entries look like.
INSERT INTO results (binder, unit_of_measurement, data_value) VALUES
  ('TCAA (dsDNA) DNA 1: GCTATCTAGTGCTCAGTACGCACTGTCAAAGGAAACTTCTGGCAGGACCAGGTCATGAGATCGGAAGAGCACACGTCTGAACTCCAGTCA DNA 2: TGACTGGAGTTCAGACGTGTGCTCTTCCGATCTCATGACCTGGTCCTGCCAGAAGTTTCCTTTGACAGTGCGTACTGAGCACTAGATAGC RNA: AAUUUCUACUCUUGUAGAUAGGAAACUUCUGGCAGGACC', 'lnKA', -8.83),
  ('TTAA (dsDNA) DNA 1: GCTATCTAGTGCTCAGTACGCACTGTTAAAGGAAACTTCTGGCAGGACCAGGTCATGAGATCGGAAGAGCACACGTCTGAACTCCAGTCA DNA 2: TGACTGGAGTTCAGACGTGTGCTCTTCCGATCTCATGACCTGGTCCTGCCAGAAGTTTCCTTTAACAGTGCGTACTGAGCACTAGATAGC RNA: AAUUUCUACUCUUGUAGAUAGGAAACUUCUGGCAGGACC', 'lnKA', -7.33),
  ('TTCA (dsDNA) DNA 1: GCTATCTAGTGCTCAGTACGCACTGTTCAAGGAAACTTCTGGCAGGACCAGGTCATGAGATCGGAAGAGCACACGTCTGAACTCCAGTCA DNA 2: TGACTGGAGTTCAGACGTGTGCTCTTCCGATCTCATGACCTGGTCCTGCCAGAAGTTTCCTTGAACAGTGCGTACTGAGCACTAGATAGC RNA: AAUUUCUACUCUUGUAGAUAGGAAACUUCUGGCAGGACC', 'lnKA', -4.73),
  ('ACTA (dsDNA) DNA 1: GCTATCTAGTGCTCAGTACGCACTGACTAAGGAAACTTCTGGCAGGACCAGGTCATGAGATCGGAAGAGCACACGTCTGAACTCCAGTCA DNA 2: TGACTGGAGTTCAGACGTGTGCTCTTCCGATCTCATGACCTGGTCCTGCCAGAAGTTTCCTTAGTCAGTGCGTACTGAGCACTAGATAGC RNA: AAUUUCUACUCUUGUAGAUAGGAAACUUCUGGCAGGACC', 'lnKA', -7.24);

Please examine the following record next.
Suppose we examine the binder TTCC (dsDNA) DNA 1: GCTATCTAGTGCTCAGTACGCACTGTTCCAGGAAACTTCTGGCAGGACCAGGTCATGAGATCGGAAGAGCACACGTCTGAACTCCAGTCA DNA 2: TGACTGGAGTTCAGACGTGTGCTCTTCCGATCTCATGACCTGGTCCTGCCAGAAGTTTCCTGGAACAGTGCGTACTGAGCACTAGATAGC RNA: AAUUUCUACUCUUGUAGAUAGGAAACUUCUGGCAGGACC ; what binding signal value has been reported?
-4.81
